tested.system: Adenosine receptors; A2a & A3 (Homo sapiens) (UniProt P0DMS8+P29274)
test.protocol: Ratio of binding to adenosine A2a and adenosine A3 receptor
Format: protein assay
measure: Selectivity

API: value(readout= Selectivity, system= Adenosine receptors; A2a & A3 (Homo sapiens) (UniProt P0DMS8+P29274), query= CNC(=O)c1cnn(-c2nc(NC)c3ncn([C@@H]4O[C@H](CO)[C@@H](O)[C@H]4O)c3n2)c1 ) > 80

API: value(readout= Selectivity, system= Adenosine receptors; A2a & A3 (Homo sapiens) (UniProt P0DMS8+P29274), query= CNc1nc(-n2cc(-c3ccc(Cl)cc3)cn2)nc2c1ncn2C1O[C@H](CO)[C@@H](O)[C@H]1O (some centres undefined) ) > 500

API: value(readout= Selectivity, system= Adenosine receptors; A2a & A3 (Homo sapiens) (UniProt P0DMS8+P29274), query= OC[C@H]1OC(n2cnc3c(NCc4cccc(I)c4)nc(-n4cc(-c5nccc6ccccc56)cn4)nc32)[C@H](O)[C@@H]1O (some centres undefined) ) < 1

Okay, now this molecule:
API: value(readout= Selectivity, system= Adenosine receptors; A2a & A3 (Homo sapiens) (UniProt P0DMS8+P29274), query= OC[C@H]1OC(n2cnc3c(NCc4cccc(I)c4)nc(-n4cc(-c5ccccn5)cn4)nc32)[C@H](O)[C@@H]1O (some centres undefined) ) > 22

Origin of measurements: ChEMBL document CHEMBL1138752
